# System: TGFBR1
# condition set: concentration: 1 μM, replicates: in singlicate; n = 1;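 also: KINOMEscan kinase panel screen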
measured endpoint: %Inh (%)
I only need the number, in %, no unit after it.

The recorded %Inh for `CNC(=O)c1ccc(C)c(-n2c(C)cc(OCc3ccc(F)cc3F)c(Br)c2=O)c1` is 0

The recorded %Inh for Cn1cncc1C(=O)NC1CCN(c2ccnc(Nc3ccc(F)cc3)n2)C1 (stereo not shown) is 26

The recorded %Inh for `COc1ccc(-c2coc3ccc(-c4nnc(C)o4)cc23)cc1` is 3

The recorded %Inh for `CSc1ccc(-c2nc3n(c2-c2ccncc2)CCC3)cc1` is 15

The recorded %Inh for `Cc1cnc(N)c(/C=C/c2cncc(C(=O)NCCc3ccc(Cl)cc3Cl)c2)c1.Cl` is 0

The recorded %Inh for `CNc1nc(-c2ccc3c(N)n[nH]c3c2)cc(N2C[C@@H](C(=O)Nc3ccccc3)CC[C@H]2C)n1` is 12

The recorded %Inh for `CC(=O)c1c(C)c2cnc(Nc3ccc(N4CCNCC4)cn3)nc2n(C2CCCC2)c1=O` is 3

The recorded %Inh for `Cn1cncc1-c1cc2c(Nc3ccc(OCc4ccccc4)cc3)ncnc2cn1` is 0

The recorded %Inh for `O=C1NC(=O)C(c2ccc(Cl)cc2)=C1Nc1ccc(O)cc1` is 1

The recorded %Inh for `CNCc1ccc2nc(NC(=O)c3ccc(C(C)(C)C)cc3)cn2c1` is 3

The recorded %Inh for `CCn1c(-c2ccccc2)nc2cnccc21` is 0

The recorded %Inh for CC(=O)c1cccc(NC(=O)NC2CCN(c3ccnc(Nc4ccc(F)cc4)n3)C2)c1 (stereo not shown) is 38

The recorded %Inh for `CS(=O)(=O)Cc1ccc(Nc2nccc(-c3c(-c4cccc(NC(=O)C5CCCCC5)c4)nn4ncccc34)n2)cc1` is 0

The recorded %Inh for `CCc1ccc(-c2ccc3c(c2)-c2n[nH]cc2S(=O)(=O)N3C)cc1` is 0

The recorded %Inh for `Cc1ccc(-c2nc(Nc3ccncc3)c3ccccc3n2)s1` is 6

The recorded %Inh for `Cn1cnc2c(N)ncnc21` is 9

The recorded %Inh for `CC(C)c1ccc(O)cc1Nc1ccnc2ccc(C(F)(F)F)cc12` is 0

The recorded %Inh for `Cc1ccc(NC(=O)Nc2ccc(Cl)cc2)cc1-c1ccc(C(=O)Nc2ccncc2)cc1` is 3

The recorded %Inh for `COc1cccc(C2=C(Nc3cc(Cl)c(O)c(Cl)c3)C(=O)NC2=O)c1` is 0

---

# Tested on: RSK1(Kin.Dom.1-N-terminal)
# Construct: gene RPS6KA1
# condition set: concentration: 1 μM, replicates: in singlicate; n = 1
measured endpoint: %Inh (%)
I only need the number, in %, no unit after it.

The recorded %Inh for CCCCc1nn2ncccc2c1-c1ccnc(NC2CC2)n1 [GW684374] is 7

The recorded %Inh for O=C(Nc1n[nH]c2nc(-c3cccs3)c(Br)cc12)C1CCCC1 [SB-743341] is 0

The recorded %Inh for CNc1cc(-c2ccc3c(N)n[nH]c3c2)nc(N)n1 [GSK2224810] is 2

The recorded %Inh for Cc1ccc(NC(=O)Nc2ccc(Cl)c(C(F)(F)F)c2)cc1-c1ccc(C(=O)Nc2ccncc2)cc1 [GSK1398470] is 2

The recorded %Inh for CNc1nc(-c2ccc3c(N)n[nH]c3c2)cc(N2C[C@@H](C(=O)Nc3ccccc3)CC[C@H]2C)n1 [GSK2298859] is 0
